- assay-name: Compound chemical stability in SGF without pepsin
- Type: physicochemical
- measurement-setup: 120 minutes
readout-type: % Remaining (%)

[[record]]
molecule = "COc1ccc(OC)c(CCN(Cc2cc(C)cc(Cl)c2)Cc2oc(=O)oc2C)c1 [Compound 2]"
reported_measurement = 86

[[record]]
molecule = "COc1ccc(OC)c(CCN(Cc2cc(C)cc(Cl)c2)C(=O)OCc2oc(=O)oc2C)c1 [Compound 3]"
reported_measurement = 106

[[record]]
molecule = "COc1ccc(OC)c(CCN(Cc2cc(C)cc(Cl)c2)C(=O)CN)c1 [Compound 6]"
reported_measurement = 95

[[record]]
molecule = "COc1ccc(OC)c(CCN(Cc2cc(C)cc(Cl)c2)C(=O)OC(C)OC(=O)C(C)(C)C)c1 (centres unmarked) [Compound 4]"
reported_measurement = 96

[[record]]
molecule = "CCOC(=O)N(CCc1cc(OC)ccc1OC)Cc1cc(C)cc(Cl)c1 [Compound 5]"
reported_measurement = 94


* * *

- assay-name: Compound mouse plasma stability
- Format: in vitro ADME
- measurement-setup: 30 minutes
readout-type: % Remaining (%)

[[record]]
compound = "COc1ccc(OC)c(CCN(Cc2cc(C)cc(Cl)c2)C(=O)OCc2oc(=O)oc2C)c1"
reported_measurement = "00"

[[record]]
compound = "COc1ccc(OC)c(CCN(Cc2cc(C)cc(Cl)c2)C(=O)OC(C)OC(=O)C(C)(C)C)c1 (centres unmarked)"
reported_measurement = 2

[[record]]
compound = "COc1ccc(OC)c(CCN(Cc2cc(C)cc(Cl)c2)C(=O)CN)c1"
reported_measurement = 85

[[record]]
compound = "CCOC(=O)N(CCc1cc(OC)ccc1OC)Cc1cc(C)cc(Cl)c1"
reported_measurement = 88

[[record]]
compound = "COc1ccc(OC)c(CCN(Cc2cc(C)cc(Cl)c2)Cc2oc(=O)oc2C)c1"
reported_measurement = 73


* * *

- assay-name: Compound chemical stability in SGF with pepsin
- Assay type: physicochemical
- measurement-setup: 30 minutes
readout-type: % Remaining (%)

[[record]]
compound = "COc1ccc(OC)c(CCN(Cc2cc(C)cc(Cl)c2)C(=O)OCc2oc(=O)oc2C)c1 [Compound 3]"
reported_measurement = 105

[[record]]
compound = "COc1ccc(OC)c(CCN(Cc2cc(C)cc(Cl)c2)C(=O)OC(C)OC(=O)C(C)(C)C)c1 (centres unmarked) [Compound 4]"
reported_measurement = 93

[[record]]
compound = "CCOC(=O)N(CCc1cc(OC)ccc1OC)Cc1cc(C)cc(Cl)c1 [Compound 5]"
reported_measurement = 97

[[record]]
compound = "COc1ccc(OC)c(CCN(Cc2cc(C)cc(Cl)c2)Cc2oc(=O)oc2C)c1 [Compound 2]"
reported_measurement = 93

[[record]]
compound = "COc1ccc(OC)c(CCN(Cc2cc(C)cc(Cl)c2)C(=O)CN)c1 [Compound 6]"
reported_measurement = 95


* * *

- assay-name: Compound chemical stability in SGF with pepsin
- Format: physicochemical
- measurement-setup: 120 minutes
Parameter % Remaining: see the listing below.
readout-type: % Remaining

[[record]]
compound = "COc1ccc(OC)c(CCN(Cc2cc(C)cc(Cl)c2)Cc2oc(=O)oc2C)c1 [Compound 2]"
readout_type = "% Remaining"
reported_measurement = "84%"

[[record]]
compound = "COc1ccc(OC)c(CCN(Cc2cc(C)cc(Cl)c2)C(=O)CN)c1 [Compound 6]"
readout_type = "% Remaining"
reported_measurement = "96%"

[[record]]
compound = "CCOC(=O)N(CCc1cc(OC)ccc1OC)Cc1cc(C)cc(Cl)c1 [Compound 5]"
readout_type = "% Remaining"
reported_measurement = "90%"

[[record]]
compound = "COc1ccc(OC)c(CCN(Cc2cc(C)cc(Cl)c2)C(=O)OCc2oc(=O)oc2C)c1 [Compound 3]"
readout_type = "% Remaining"
reported_measurement = "93%"

[[record]]
compound = "COc1ccc(OC)c(CCN(Cc2cc(C)cc(Cl)c2)C(=O)OC(C)OC(=O)C(C)(C)C)c1 (centres unmarked) [Compound 4]"
readout_type = "% Remaining"
reported_measurement = "94%"

